- Tested system: SOS1 binding to KRAS G12C (Homo sapiens, UniProt Q07889)
- Construct: consisting of amino acid residues 564 to 1049 which are the catalytic domain; MSC-11-538 (KRAS G12C)
- Sequence (Q07889 564-1049, stated change not applied): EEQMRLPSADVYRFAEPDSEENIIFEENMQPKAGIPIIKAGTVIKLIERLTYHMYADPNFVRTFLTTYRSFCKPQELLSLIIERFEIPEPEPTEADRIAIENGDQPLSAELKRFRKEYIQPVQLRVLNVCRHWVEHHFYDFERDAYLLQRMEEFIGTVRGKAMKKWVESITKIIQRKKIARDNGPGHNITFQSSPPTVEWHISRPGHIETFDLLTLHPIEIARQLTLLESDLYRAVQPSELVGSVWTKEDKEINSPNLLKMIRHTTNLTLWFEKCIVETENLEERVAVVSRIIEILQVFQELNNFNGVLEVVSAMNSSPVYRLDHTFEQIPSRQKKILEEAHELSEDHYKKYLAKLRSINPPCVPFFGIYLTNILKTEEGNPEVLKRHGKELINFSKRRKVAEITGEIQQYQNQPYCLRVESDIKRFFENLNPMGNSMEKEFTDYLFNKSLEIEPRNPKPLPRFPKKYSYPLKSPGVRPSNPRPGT
- Assay procedure: SOS1 GTP substitution inhibition test (HTRF/TR-FRET, KRAS G12C-SOS1 binding inhibitory ability)
- Stated conditions: HTRF, GST-KRAS G12C (2-169), SOS1-Strep (564-1049), 1.6, 8, 40, 200, 1,000 nM
pIC50: −log10 of the molar value.
A collection of molecules and their measured pIC50

Example entries begin here.
Per the records, this molecule ( CNc1cc2c(N[C@H](C)c3cc(N)cc(C(F)(F)F)c3)nc(C)nc2cc1C(=O)N1CCNCC1 ) has pIC50 equal to ≥ 7.30

Looking up COc1cc2c(N[C@H](C)c3cc(N)cc(C4CC4)c3)nc(C)nc2cc1C(=O)N1CCOCC1 , I see its pIC50 listed as 7.00 to 7.30

For this molecule ( COc1cc2c(N[C@H](C)c3cc(N)cc(-c4ccoc4)c3)nc(C)nc2cc1C(=O)N1CCOCC1 ), measured pIC50 is ≥ 7.30

# pIC50 (molecule: COc1cc2c(N[C@H](C)c3cc(N)cc(C(F)F)c3F)nc(C)nc2cc1CN1CCOCC1 ) is ≥ 7.30

What the record says about CNc1cc2c(N[C@H](C)c3cc(N)cc(C(F)(F)F)c3)nc(C)nc2cc1C(=O)N1CCSC1 : pIC50 is ≥ 7.30

CCNc1cc2c(N[C@H](C)c3cc(N)cc(C(F)F)c3F)nc(C)nc2cc1C(=O)N1CCOCC1 has a reported pIC50 of 7.00 to 7.30

Continuing:
Lookup result for Cc1nc(N[C@H](C)c2cc(N)cc(C(F)(F)F)c2)c2cc(NC3CCOCC3)c(C(=O)N3CCOCC3)cc2n1 ; measured pIC50: < 7.00

Lab note: measured pIC50 of Cc1nc(N[C@H](C)c2cc(N)cc(C(F)(F)F)c2)c2cc(N3CCCC3)c(C(=O)N3CCOCC3)cc2n1 was < 7.00

Per the record, COc1cc2c(N[C@H](C)c3cc(N)cc(C(F)(F)F)c3)nc(C)nc2cc1C(=O)N1CCC1 has pIC50 of < 7.00

Recorded pIC50 (molecule COCCOc1cc2c(N[C@H](C)c3cc(N)cc(C(F)(F)F)c3)nc(C)nc2cc1C(=O)N1CCOCC1 ): < 7.00

The value of pIC50 measured for the molecule COc1cc2c(N[C@H](C)c3cc(N)cc(C(F)(F)F)c3)nc(C)nc2cc1NC1CCOCC1 turned out to be < 7.00

Short answer for CNc1cc2c(N[C@H](C)c3cc(N)cc(C(F)(F)F)c3)nc(C)nc2cc1C(=O)N1CCSCC1 : pIC50 was ≥ 7.30

Noted for CNc1cc2c(N[C@H](C)c3cc(N)cc(C(F)(F)F)c3)nc(C)nc2cc1C(=O)N1CCC1 : its pIC50 reads 7.00 to 7.30

So, CNc1cc2c(N[C@H](C)c3cc(N)cc(C(F)(F)F)c3)nc(C)nc2cc1C(=O)N1CCN(C)CC1 ? Its pIC50 was 7.00 to 7.30

The reported value for COc1cc2c(N[C@H](C)c3cc(N)cc(C(F)(F)F)c3)nc(C)nc2cc1C(=O)N1C[C@@H](C)N[C@@H](C)C1 in terms of pIC50 is < 7.00

Entry COc1cc2c(N[C@H](C)c3cc(N)cc(C(F)(F)F)c3)nc(C)nc2cc1C(=O)N1CCSCC1 , pIC50 reported as 7.00 to 7.30
